# System: E. coli M 49
measure.name: MIC (µg/mL)

The following molecules have reported results that may help.
- molecule: "O=C(NOC[C@@H]1CCCCN1)[C@@H]1CC[C@@H]2CN1C(=O)N2OC(F)(F)C(=O)O"
  target.desc: "E. coli M 49"
  readout.units: "µg/mL"
  MIC: 8
- molecule: "O=C(NOC[C@H]1CCCCCN1)[C@@H]1CC[C@@H]2CN1C(=O)N2OC(F)(F)C(=O)O"
  target.desc: "E. coli M 49"
  readout.units: "µg/mL"
  MIC: 8
- molecule: "O=C(NOC[C@H]1CCCN1)[C@@H]1CC[C@@H]2CN1C(=O)N2OC(F)(F)C(=O)O"
  target.desc: "E. coli M 49"
  readout.units: "µg/mL"
  MIC: 2

[1] O=C(NOC1CCNC1)[C@@H]1CC[C@@H]2CN1C(=O)N2OC(F)(F)C(=O)O (some centres unmarked)
[2] O=C(NOC[C@@H]1CCCCCN1)[C@@H]1CC[C@@H]2CN1C(=O)N2OC(F)(F)C(=O)O
Input line: Just tell me: smaller MIC value, 1 or 2 ? Reply briefly: the label of your chosen item.
Output line: 2
